# assay target: T1, biotinylated CRH (human and mouse, UniProt P01143 145-185 (rat entry), not fully specified; biotin; which end is not stated for the result (NT-biotin and CT-biotin forms were used))
# T1 construct: also called biotin-CRH; CRH (NT biotin)
# T1 peptide: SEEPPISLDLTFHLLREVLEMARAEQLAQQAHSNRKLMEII
# experimental protocol: ELISA, CRH (NT biotin)
observation type: binding result

PR006144 (antibody, human IgG1, kappa, V domains shown) VH: EVQLVESGGVLVQPGGSLRLSCAASGFTFSSYWMTWVRQAPGKGLEWVANIKQEGSEKYYVDSVKGRFTISRDNAKNSLFLQMNSLRAEDTAVYYCARTLIFDYWGQGTLVTVSS VL: DIVMTQSPLSLPVTPGEPASISCRSSQSLLHSTGYNPLEWYLQKPGQSPQLLIYLGSNRASGVPDRFSGSGSGTDFTLKISRVEAEDVGIYYCMQTLQTPITFGQGTRLEIKR | binds
PR006151 (antibody, human IgG1, kappa, V domains shown) VH: EVQLVESGGVLVQPGGSLRLSCAASGFTFSSYWMTWVRQAPGKGLEWVANIKQDSSEKYYVDSVKGRFTISRDNAKNSLFLQMNSLRAEDTAVYYCARTLIFDYWGQGTLVTVSS VL: DIVMTQSPLSLPVTPGEPASISCRSSQSLLHSTGYHSLEWYLQKPGQSPQLLIYLGSNRASGVPDRFSGSGSGTDFTLKISRVEAEDVGIYYCMQTLQTPITFGQGTRLEIKR | binds
PR006152 (antibody, human IgG1, kappa, V domains shown) VH: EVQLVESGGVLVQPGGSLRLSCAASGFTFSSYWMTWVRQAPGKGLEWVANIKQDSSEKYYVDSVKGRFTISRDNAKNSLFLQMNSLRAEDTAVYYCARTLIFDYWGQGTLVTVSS VL: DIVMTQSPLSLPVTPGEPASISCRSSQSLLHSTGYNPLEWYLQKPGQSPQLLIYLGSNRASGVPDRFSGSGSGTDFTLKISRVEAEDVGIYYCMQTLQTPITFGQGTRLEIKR | binds
